Experiment: VP16 transactivation reporter inhibitors, counter-screen for LRH-1 inverse agonist project, cell-based, luminescence, high throughput (AID 651615)
Details: Gal4-VP16 luciferase reporter cells, at 3.6 µM, active compounds read high
Calls of active or inactive are those of the source. No stated cut-off is given here; in the data, active means inhibition above about 33%; inactive means the rest.
Recorded inhibition values for a group of molecules are listed next.

>  <query.smiles>
CC(=O)c1ccsc1-c1c(C)cc2oc(=O)cc(-c3ccccc3)c2c1C

>  <inhibition>
-0.37% (inactive)

$$$$
>  <query.smiles>
Cc1ccccc1C(=O)N1CCN(c2ccc(NC(=O)c3ccc4c(c3)OCO4)cc2)CC1

>  <inhibition>
80.7% (active)

$$$$
>  <query.smiles>
Clc1ccccc1-c1nnc2sc(-c3ccncc3)nn12

>  <inhibition>
3.81% (inactive)

$$$$
